# Test system: SEM cells
# assay_overview: cell viability relative to DMSO control; higher = less cytotoxic
# condition_context: RPMI 5 mM glucose + 10% dialyzed FBS; 48 h; 0.000781 µM
endpoint_name: cell viability (%)
State just the number; it will be interpreted in %.

What does the data say about its cell viability? Entry: CCOC(=O)\C1=C\[C@@H](OC(CC)CC)[C@H](NC(C)=O)[C@@H](N)C1 75.6

What does the data say about its cell viability? Entry: OCc1ccc(-c2ccc(-c3ccc(CO)s3)o2)s1 114

What does the data say about its cell viability? Entry: C[C@@H](O)[C@@H]1NC(=O)[C@H](CCCCN)NC(=O)[C@@H](Cc2c[nH]c3ccccc23)NC(=O)[C@H](Cc2ccccc2)NC(=O)[C@@H](NC(=O)[C@H](N)Cc2ccccc2)CSSC[C@@H](C(=O)N[C@H](CO)[C@@H](C)O)NC1=O 64.8

What does the data say about its cell viability? Entry: CCOC(=O)Nc1ccc(NCc2ccc(F)cc2)nc1N 115

What does the data say about its cell viability? Entry: NC(=O)OCC(COC(N)=O)c1ccccc1 99.7

What does the data say about its cell viability? Entry: CC(C)(O)c1cc2nc(-c3cnc(N)nc3)nc(N3CCOCC3)c2s1 106

What does the data say about its cell viability? Entry: COC1=CC=C2CN(C)CC[C@@]34\C=C/[C@H](O)C[C@@H]3OC1=C24 108

What does the data say about its cell viability? Entry: Cc1onc(-c2ccccc2)c1C(=O)N[C@@H]1C(=O)N2[C@@H]1SC(C)(C)[C@@H]2C(=O)[O-].[Na+] 115

====

# System: P12-Ichikawa
# assay_overview: AUC of viability dose-response curve (% viability x log10 dose units); higher = less sensitive
# condition_context: HPLM + 10% dialyzed FBS; 48 h
I'd appreciate it if you could supply AUC of viability dose-response curve values for the items below.
API doc: respond with a numeric literal and nothing else, no unit.

What does the data say about its AUC of viability dose-response curve? Entry: CN(C)C(=O)C(CCN1CCC(O)(c2ccc(Cl)cc2)CC1)(c1ccccc1)c1ccccc1 460

What does the data say about its AUC of viability dose-response curve? Entry: NC(=O)c1ncn([C@@H]2O[C@H](CO)[C@@H](O)[C@H]2O)c1O 464

What does the data say about its AUC of viability dose-response curve? Entry: COc1ccc2c(c1OC)C(=O)O[C@H]2[C@H]1c2c(cc3c(c2OC)OCO3)CCN1C 284

What does the data say about its AUC of viability dose-response curve? Entry: CC(C)(O)/C=C\C(=O)[C@](C)(O)[C@H]1[C@H](O)C[C@]2(C)[C@@H]3CC=C4[C@@H](C=C(O)C(=O)C4(C)C)[C@]3(C)C(=O)C[C@@]12C 269

What does the data say about its AUC of viability dose-response curve? Entry: CCOC(=O)/C=C/[C@H](C[C@@H]1CCNC1=O)NC(=O)[C@@H](CC(=O)[C@@H](NC(=O)c1cc(C)on1)C(C)C)Cc1ccc(F)cc1 466

What does the data say about its AUC of viability dose-response curve? Entry: O=c1[nH]c(=O)n(C2CCCO2)cc1F (stereo not drawn) 466

What does the data say about its AUC of viability dose-response curve? Entry: CCN1CCN(C(=O)Cc2ccc(Nc3ncc(F)c(Nc4ccc(C(=O)Nc5ccccc5Cl)cc4)n3)cc2)CC1 405

What does the data say about its AUC of viability dose-response curve? Entry: COc1cccc2c1[C@]13CCN(CC4CC4)[C@H](C2)[C@]1(OC)CCC(=O)C3 451
